- experimental-protocol: Acute oral toxicity in rats
- Assay type: in vivo
- experimental-parameters: rat, in vivo, po, 2000 mg/kg, Percentage Mortality
attribute-measured: mortality at 96 h (%)
# output: bare number, implied unit %

Query :: Requested field: mortality at 96 h. Item: CSCCC(NC(C)=O)C(=O)Oc1ccc(NC(C)=O)cc1 (racemic) [Compound A]
Result :: 0

* * *

- experimental-protocol: Acute oral toxicity in rats
- Assay type: in vivo
- experimental-parameters: rat, in vivo, po, 1000 mg/kg, 1 g/kg oral, 10 M, 3 Days; read-out: Percentage Mortality
attribute-measured: mortality at 72 h (%)
# output: bare number, implied unit %

Query :: Requested field: mortality at 72 h. Item: CC(=O)Nc1ccc(O)cc1 [NAPA, N-acetyl-para-aminophenol]
Result :: 10

* * *

- experimental-protocol: Acute oral toxicity in rats
- Type: in vivo
- experimental-parameters: rat, in vivo, po, 4000 mg/kg, 4 g/kg oral, 10 F, 6 Days; read-out: Percentage Mortality
attribute-measured: mortality at 144 h (%)
# output: bare number, implied unit %

Query :: Requested field: mortality at 144 h. Item: CC(=O)Nc1ccc(O)cc1
Result :: 70

* * *

- experimental-protocol: Acute oral toxicity in rats
- Assay type: in vivo
- experimental-parameters: rat, in vivo, po, 2000 mg/kg, 2 g/kg oral, M & F, 48 Hours; read-out: Percentage Mortality
attribute-measured: mortality at 48 h (%)
# output: bare number, implied unit %

Query :: Requested field: mortality at 48 h. Item: CC(=O)Nc1ccc(O)cc1
Result :: 5
